# assay-system: HIV Env of isolate BJOX015000.11.5 (clade AE) (HIV)
# assay-comment: cell-based or functional assay
assay-metric: IC80 (µg/ml) with constrains

In the examples that follow, each entry is paired with its recorded IC80 (µg/ml) with constrains.
binder	IC80 (µg/ml) with constrains
PGDM1400 (antibody, V domains shown) VH: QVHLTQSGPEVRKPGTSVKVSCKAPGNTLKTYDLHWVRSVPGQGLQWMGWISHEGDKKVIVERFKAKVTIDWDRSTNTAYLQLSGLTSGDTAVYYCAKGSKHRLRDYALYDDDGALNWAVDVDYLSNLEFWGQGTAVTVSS VL: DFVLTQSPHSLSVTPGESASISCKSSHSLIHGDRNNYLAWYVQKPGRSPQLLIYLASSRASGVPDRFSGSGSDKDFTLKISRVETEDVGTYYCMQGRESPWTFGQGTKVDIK	4.21 µg/mL
ePGDM5 (antibody, V domains shown) VH: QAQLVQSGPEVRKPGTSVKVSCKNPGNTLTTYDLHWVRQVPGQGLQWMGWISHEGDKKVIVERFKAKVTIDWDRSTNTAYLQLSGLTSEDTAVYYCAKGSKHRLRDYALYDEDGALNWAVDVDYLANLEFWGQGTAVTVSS VL: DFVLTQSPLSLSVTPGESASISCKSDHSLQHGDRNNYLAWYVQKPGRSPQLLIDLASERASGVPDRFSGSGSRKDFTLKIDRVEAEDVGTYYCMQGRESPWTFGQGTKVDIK	4.39 µg/mL
ePGDM13 (antibody, V domains shown) VH: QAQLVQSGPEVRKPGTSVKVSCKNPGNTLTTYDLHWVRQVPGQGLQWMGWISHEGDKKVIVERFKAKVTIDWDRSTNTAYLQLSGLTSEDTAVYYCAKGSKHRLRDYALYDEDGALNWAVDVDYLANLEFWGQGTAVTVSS VL: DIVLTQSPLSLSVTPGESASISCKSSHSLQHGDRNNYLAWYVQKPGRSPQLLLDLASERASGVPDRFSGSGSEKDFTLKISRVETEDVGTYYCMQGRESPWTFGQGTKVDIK	6.86 µg/mL

Please examine the following record next.
Request: Name the recorded IC80 (µg/ml) with constrains for ePGDM9 (antibody, V domains shown) VH: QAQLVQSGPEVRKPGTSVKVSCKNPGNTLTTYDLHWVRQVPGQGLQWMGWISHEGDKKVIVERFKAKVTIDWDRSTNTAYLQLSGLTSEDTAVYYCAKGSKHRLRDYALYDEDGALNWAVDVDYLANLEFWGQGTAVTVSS VL: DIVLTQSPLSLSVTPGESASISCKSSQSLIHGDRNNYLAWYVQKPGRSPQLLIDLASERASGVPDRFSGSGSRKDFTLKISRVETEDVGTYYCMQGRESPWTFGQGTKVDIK .
Result: 3.83 µg/mL
